Reported values of EC50 for individual entries
SYSTEM UNDER TEST: UniProtKB P41145
Sequence (P41145 whole entry): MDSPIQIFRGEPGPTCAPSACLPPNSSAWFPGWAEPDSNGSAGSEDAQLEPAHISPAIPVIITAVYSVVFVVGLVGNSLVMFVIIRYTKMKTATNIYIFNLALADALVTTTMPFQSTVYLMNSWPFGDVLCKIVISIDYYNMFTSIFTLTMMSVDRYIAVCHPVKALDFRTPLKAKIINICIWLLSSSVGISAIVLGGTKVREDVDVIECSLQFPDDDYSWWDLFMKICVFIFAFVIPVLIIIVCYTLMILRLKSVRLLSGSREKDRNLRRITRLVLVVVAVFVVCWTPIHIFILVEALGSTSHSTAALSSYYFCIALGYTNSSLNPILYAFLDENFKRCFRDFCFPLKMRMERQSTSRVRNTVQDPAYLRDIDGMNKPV
PROTOCOL: cell-based
MEASUREMENT CONTEXT: EC50 Potency Score

MOLECULE	SYSTEM UNDER TEST	EC50
COC(=O)[C@@H]1C[C@H](OC(=O)/C=C/c2ccccc2)C(=O)[C@@H]2[C@H]3C[C@@H](c4ccoc4)CC(=O)[C@@H]3CC[C@]21C [ALB-231360]	UniProtKB P41145	1 to 10 µM
COC(=O)[C@@H]1C[C@@H](OC(C)=O)C(=O)[C@@H]2[C@@]3(C)C[C@@H](c4ccoc4)CC(=O)[C@@H]3CC[C@]21C [ALB-230935, 2-cpi-O6C-20-nor-SalA]	UniProtKB P41145	0.001 to 0.1 µM
COCO[C@H]1C[C@@H](C(=O)OC)[C@]2(C)CC[C@H]3C(=O)C[C@H](c4ccoc4)C[C@@H]3[C@H]2C1=O [ALB-231273]	UniProtKB P41145	< 0.001 µM

Query: Fill in EC50 for COC(=O)[C@@H]1C[C@H](O)C(=O)[C@@H]2[C@H]3C[C@@H](c4ccoc4)CC(=O)[C@@H]3CC[C@]21C [ALB-231274, O6C-20-nor-SalB] tested with UniProtKB P41145.
Response: 0.1 to 1 µM

Query: Fill in EC50 for COC(=O)[C@@H]1C[C@H](OC(C)=O)C(=O)[C@@H]2[C@@]3(C)C[C@@H](c4ccoc4)CC(=O)[C@@H]3CC[C@]21C (racemic) [ALB-230937, O6C-20-nor-SalA racemic mixture] tested with UniProtKB P41145.
Response: < 0.001 µM
